Please respond with reported Ki for every item in the list.
Biological target: 5-HT2A receptor (Homo sapiens, UniProt P28223)
Sequence (P28223 whole entry): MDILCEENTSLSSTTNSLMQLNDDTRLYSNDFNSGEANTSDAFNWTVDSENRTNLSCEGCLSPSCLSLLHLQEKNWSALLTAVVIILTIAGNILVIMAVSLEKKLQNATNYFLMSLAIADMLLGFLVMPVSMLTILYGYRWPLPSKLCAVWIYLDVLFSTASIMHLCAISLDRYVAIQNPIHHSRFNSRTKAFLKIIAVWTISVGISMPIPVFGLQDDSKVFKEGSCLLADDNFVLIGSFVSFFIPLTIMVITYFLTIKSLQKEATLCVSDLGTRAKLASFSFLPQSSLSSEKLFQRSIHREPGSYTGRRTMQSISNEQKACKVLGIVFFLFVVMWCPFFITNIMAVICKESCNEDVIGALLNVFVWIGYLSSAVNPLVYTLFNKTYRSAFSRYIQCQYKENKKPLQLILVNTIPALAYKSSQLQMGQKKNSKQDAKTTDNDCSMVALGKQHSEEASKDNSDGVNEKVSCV
Assay: Binding to 5-HT2A receptor, [125I]-DOI, CHO cell line
Parameters: expressed in transfected cells; host or cells: CHO cell line
Conditions: [125I]-DOI, CHO cell line; read-out: Ki (2A)
Counter-ions that a name gives are not always drawn.
Express your answer as a number followed by its unit.

I have this molecule here, COc1ccc2c(c1)c(CC(C)N)c1n2CCC1 (racemic) [Example 3, fumarate] , and I need its recorded Ki.
151 nM

Look up Ki: CC(N)Cc1c2n(c3ccc(Cl)cc13)CCC2 (racemic) [Example 1, hydrochloride]
457 nM

I have this molecule here, CC(N)Cc1c2n(c3ccc(Br)cc13)CCC2 (racemic) [Example 5, fumarate] , and I need its recorded Ki.
448 nM

Can you look up the measured Ki of CSc1ccc2c(c1)c(CC(C)N)c1n2CCC1 (racemic) [Example 11, fumarate] for me?
316 nM

====

Where a name gives a salt, the structure may show the parent alone.
parameter measured: melting point

Consider the compound shown here: CC(N)Cc1c2n(c3ccc(OCc4ccccc4)cc13)CCC2 (racemic) (as salt: fumarate) What is its recorded melting point?
146 to 147 °C (dec.)

Look up melting point for this compound: CSc1ccc2c(c1)c(CC(C)N)c1n2CCC1 (racemic) (as salt: fumarate) [Example 11]
204 to 206 °C (dec.)

# get_value(readout='melting point', item= Cc1ccc2c(c1)c(CC(C)N)c1n2CCC1 (racemic) (as salt: fumarate) [Example 6] )
138 to 139 °C

====

Target: 5-HT2A receptor (Homo sapiens, UniProt P28223)
Assay: Binding to 5-HT2A receptor, [125I]-DOI, CHO cell line
Design: expressed in transfected cells; host or cells: CHO cell line
Structures can show the parent of a compound that is named as a salt.
parameter measured: pKi
Please express pKi as -log10 of the molar concentration.

Bench note: what pKi did CC(N)Cc1c2n(c3cc(F)c(F)cc13)CCC2 (racemic) [Example 2, hydrochloride] show?
6.59

====

Target: human 5-HT2C (Homo sapiens)
Test: Binding to 5-HT2C receptor, [3H]-5-HT, CHO cell line
Set-up: expressed in transfected cells; host or cells: CHO cell line
Settings: [3H]-5-HT, CHO cell line; read-out: Ki (2C)
Where a name gives a salt, the structure may show the parent alone.
parameter measured: pKi
Friendly reminder that pKi comes from taking -log10 of the concentration in mol/L.

Would you mind telling me what pKi value was observed for CSc1ccc2c(c1)c(CC(C)N)c1n2CCC1 (racemic) [Example 11, fumarate] ?
7.08

Request the reported pKi associated with CC(N)Cc1c2n(c3ccc(Cl)cc13)CCC2 (racemic) [Example 1, hydrochloride]
6.96

Request the reported pKi associated with CC(N)Cc1c2n(c3ccc(Br)cc13)CCC2 (racemic) [Example 5, fumarate]
7.09

Tell me the measured pKi of COc1ccc2c(c1)c(CC(C)N)c1n2CCC1 (racemic) [Example 3, fumarate] , please.
6.93

====

Biological target: UniProt:P28335
Sequence (P28335 33-458): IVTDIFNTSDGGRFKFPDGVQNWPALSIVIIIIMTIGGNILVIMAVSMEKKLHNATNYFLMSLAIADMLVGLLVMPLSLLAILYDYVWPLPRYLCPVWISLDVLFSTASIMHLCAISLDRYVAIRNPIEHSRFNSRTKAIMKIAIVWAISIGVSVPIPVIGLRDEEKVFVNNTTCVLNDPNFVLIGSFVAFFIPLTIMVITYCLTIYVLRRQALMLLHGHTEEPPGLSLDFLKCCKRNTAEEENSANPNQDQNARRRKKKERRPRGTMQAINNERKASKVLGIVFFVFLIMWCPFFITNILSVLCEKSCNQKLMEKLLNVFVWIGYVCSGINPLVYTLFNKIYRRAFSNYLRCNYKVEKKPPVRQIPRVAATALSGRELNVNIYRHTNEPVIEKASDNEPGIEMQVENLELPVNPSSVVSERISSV
Assay: Functional activity, FLIPR calcium assay, CHO cells expressing human 5-HT2C
Assay type: cell-based
Set-up: expressed in transfected cells; host or cells: CHO cells
Conditions: FLIPR, CHO cells; read-out: h5-HT2c EC50
Procedure: The functional activity of compounds of formula (I) was assayed using a Fluorimetric Imaging Plate reader (FLIPR). CHO cells expressing the human 5-HT2C or human 5-HT2A receptors were counted and plated into standard 96 well microtitre plates on the day before testing to give a confluent monolayer. […] The drug (dissolved in 50 μL of the assay buffer) was added at a rate of 70 μL/sec to each well of the FLIPR 96 well plate during fluorescence measurements. […]
Structures can show the parent of a compound that is named as a salt.
parameter measured: EC50 (nM)
All answers are understood in nM, so give the number only.

Which EC50 is reported for this compound? CC(N)Cc1c2n(c3cc(F)c(F)cc13)CCC2 (racemic) [Example 2, hydrochloride]
147

# credit: patent US6433175B1
